Test: Two weak acid combinations with lidocaine citrate: pH, precipitation and stability at 4° C. for 3 months
Details: 2 wt. % acidifying agent; appearance of solution

- compound: "CC(=O)O"
  Observation: "Clear"
- compound: "CC(O)C(=O)O (stereo not shown)"
  Observation: "Clear"
- compound: "O=C(O)/C=C/C(=O)O"
  Observation: "Oxidized"
- compound: "O=C(O)/C=C\\C(=O)O"
  Observation: "Oxidized"
- compound: "O=C(O)CCC(=O)O"
  Observation: "Clear"
- compound: "O=C(O)CC(O)C(=O)O (stereo not shown)"
  Observation: "Clear"
- compound: "O=C(O)[C@H](O)[C@@H](O)C(=O)O"
  Observation: "Clear"

Hey, just so you know, these numbers are from patent US20250152528A1.
